measured.on: Human recombinant PDE4 (Genbank accession no NM—006203) (Homo sapiens)
experiment.notes: PDE4 assay (SPA, cleavage of cAMP)
Type: biochemical
run.conditions: 1 hour incubation, test compound up to 10 μM, cAMP 1×10^−5M, read-out: PDE4 IC50 range
readout: IC50

molecule=COc1ccc(-c2ccc3c(c2)CNC3=O)c(OCC(C)C)c1OC readout=IC50 result="< 100 nM"
molecule=COc1ccc(-c2ccc3c(c2)CNC3=O)c(OCC(C)(C)C)c1OC readout=IC50 result="< 100 nM"
molecule=COCC1(COc2c(-c3ccc4c(c3)CNC4=O)ccc(OC)c2OC)COC1 readout=IC50 result="< 100 nM"
molecule=COc1ccc(-c2cccc3c2COC3=O)c(OCC2(C)COC2)c1OC readout=IC50 result="100 to 500 nM"
molecule=COc1ccc(-c2cccc3c2CCC3=O)c(OCc2cccc(C(N)=O)c2)c1OC readout=IC50 result="< 100 nM"
molecule=COc1ccc(-c2ccc3c(c2)CCC3=O)c(OCC2(CO)COC2)c1OC readout=IC50 result="100 to 500 nM"
molecule=COc1ccc(-c2cccc3c2COC3=O)c(OCc2ccc(C(=O)N(C)C)cc2)c1OC readout=IC50 result="< 100 nM"
molecule=COc1ccc(-c2ccc3c(c2)CCC3=O)c(OCc2ccc(S(C)(=O)=O)cc2)c1OC readout=IC50 result="< 100 nM"
molecule=COCC1(COc2c(-c3ccc4c(c3)COC4=O)ccc(OC)c2OC)COC1 readout=IC50 result="< 100 nM"
molecule=COc1ccc(-c2cccc3c2CCC3=O)c(OCC(C)(C)C(=O)NC2CC2)c1OC readout=IC50 result="< 100 nM"
molecule=COCCOC(=O)NCC1(COc2c(-c3cccc4c3CCC4=O)ccc(OC)c2OC)COC1 readout=IC50 result="< 100 nM"
molecule=COc1ccc(-c2ccc(OC)c3c2CCC3=O)c(OCC(C)C)c1OC readout=IC50 result="≥ 500 nM"
molecule=COc1ccc(-c2ccc3c(c2)COC3=O)c(OCc2cccc(S(=O)(=O)N(C)C)c2)c1OC readout=IC50 result="< 100 nM"
molecule=COc1ccc(-c2ccc3c(c2)CNC3=O)c(OCc2ccc(S(C)(=O)=O)cc2)c1OC readout=IC50 result="< 100 nM"
molecule=CCNC(=O)OCC(C)(C)COc1c(-c2ccc3c(c2)CNC3=O)ccc(OC)c1OC readout=IC50 result="≥ 500 nM"
molecule=CCOC(=O)NCC1(COc2c(-c3cccc4c3CCC4=O)ccc(OC)c2OC)CC1 readout=IC50 result="< 100 nM"
molecule=COc1ccc(-c2cccc3c2CNC3=O)c(OCC(C)C)c1OC readout=IC50 result="100 to 500 nM"
molecule=COc1ccc(-c2cccc3c2CCC3=O)c(OCC2(CO)COC2)c1OC readout=IC50 result="< 100 nM"
molecule=COCCOC(=O)NCC1(COc2c(-c3cccc4c3CCC4=O)ccc(OC)c2OC)CC1 readout=IC50 result="< 100 nM"
molecule=COc1ccc(-c2ccc3c(c2)OCC3=O)c(OCC(C)C)c1OC readout=IC50 result="100 to 500 nM"
molecule=CNC(=O)c1ccc(COc2c(-c3ccc4c(c3)COC4=O)ccc(OC)c2OC)cc1 readout=IC50 result="< 100 nM"
molecule=CNC(=O)c1ccc(COc2c(-c3ccc4c(c3)CNC4=O)ccc(OC)c2OC)cc1 readout=IC50 result="< 100 nM"
molecule=COc1ccc(-c2cccc3c2CCC3=O)c(OCC2(CO)CC2)c1OC readout=IC50 result="< 100 nM"
molecule=COc1ccc(-c2cccc3c2CCC3=O)c(OCC2(COC(=O)NC(C)C)CC2)c1OC readout=IC50 result="< 100 nM"
molecule=COc1ccc(-c2ccc3c(c2)CNC3=O)c(OCc2ccc(S(N)(=O)=O)cc2)c1OC readout=IC50 result="< 100 nM"
molecule=CCNC(=O)OCC(C)(C)COc1c(-c2cccc3c2CCC3=O)ccc(OC)c1OC readout=IC50 result="< 100 nM"
molecule=COc1ccc(-c2ccc3c(c2)CCC3=O)c(OCc2ccc(C(=O)N(C)C)cc2)c1OC readout=IC50 result="< 100 nM"
molecule=COCC(=O)NCC1(COc2c(-c3cccc4c3CCC4=O)ccc(OC)c2OC)COC1 readout=IC50 result="< 100 nM"
molecule=COc1ccc(-c2ccc3c(c2)CNC3=O)c(OCc2cccc(C(N)=O)c2)c1OC readout=IC50 result="100 to 500 nM"
molecule=COc1ccc(-c2ccc3c(c2)CCC3=O)c(OCC(C)(C)C(=O)N(C)C)c1OC readout=IC50 result="100 to 500 nM"
molecule=COc1ccc(-c2cccc3c2CCC3=O)c(OCC2(CNC(=O)C(C)C)COC2)c1OC readout=IC50 result="< 100 nM"
molecule="COc1ccc(-c2ccc3c(c2)C(C)N(C)C3=O)c(OCC(C)C)c1OC (stereo not shown)" readout=IC50 result="≥ 500 nM"
molecule=COc1ccc(-c2cccc3c2CCC3=O)c(OCC2(C)COC2)c1OC readout=IC50 result="< 100 nM"
molecule=COc1ccc(-c2cccc3c2CCC3=O)c(OCC2(COC(=O)NCc3ccccc3)CC2)c1OC readout=IC50 result="< 100 nM"

====

# IC50 values compiled below
measured.on: Human recombinant PDE4 (Genbank accession no NM—006203) (Homo sapiens, UniProt Q08499)
Sequence (Q08499 1-673 isoform Q08499-2): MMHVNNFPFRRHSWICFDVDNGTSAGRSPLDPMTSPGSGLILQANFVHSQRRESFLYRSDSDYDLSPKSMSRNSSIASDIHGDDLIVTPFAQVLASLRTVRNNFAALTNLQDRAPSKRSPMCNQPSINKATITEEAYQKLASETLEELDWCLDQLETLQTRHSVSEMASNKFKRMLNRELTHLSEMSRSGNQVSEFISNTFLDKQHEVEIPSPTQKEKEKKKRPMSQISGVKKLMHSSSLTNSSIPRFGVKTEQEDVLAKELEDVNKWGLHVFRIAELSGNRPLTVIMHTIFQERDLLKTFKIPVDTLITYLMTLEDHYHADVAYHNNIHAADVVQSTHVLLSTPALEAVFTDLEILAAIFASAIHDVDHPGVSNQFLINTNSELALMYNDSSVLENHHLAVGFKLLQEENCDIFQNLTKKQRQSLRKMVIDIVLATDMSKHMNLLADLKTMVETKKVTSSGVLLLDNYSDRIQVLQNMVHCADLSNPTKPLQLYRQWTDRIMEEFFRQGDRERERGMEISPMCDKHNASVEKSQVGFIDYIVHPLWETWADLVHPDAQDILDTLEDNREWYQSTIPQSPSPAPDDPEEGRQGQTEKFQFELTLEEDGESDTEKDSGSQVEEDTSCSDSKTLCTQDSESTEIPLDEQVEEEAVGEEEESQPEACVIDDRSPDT
experiment.notes: PDE4 assay (SPA, cleavage of cAMP)
run.conditions: 1 hour incubation, test compound up to 10 μM, cAMP 1×10^−5M, read-out: PDE4 IC50 range
readout: IC50

compound="COc1ccc(-c2ccc3c(c2)CCC3=O)c(OCCC(C)(C)C)c1OC [Compound 123]" readout=IC50 result="< 100 nM"
compound="COc1ccc(-c2ccc3c(c2)COC3=O)c(OCC(C)(C)C)c1OC [Compound 132]" readout=IC50 result="< 100 nM"
compound="COc1ccc(-c2cccc3c2CCC3=O)c(OCc2ccc(S(N)(=O)=O)cc2)c1OC [Compound 112]" readout=IC50 result="< 100 nM"
compound="COc1ccc(-c2ccc3c(c2)COC3=O)c(OCc2ccc(C(N)=O)cc2)c1OC [Compound 136]" readout=IC50 result="< 100 nM"

====

measured.on: Human recombinant PDE4 (Genbank accession no NM—006203) (Homo sapiens)
experiment.notes: PDE4 assay (SPA, cleavage of cAMP)
run.conditions: 1 hour incubation, test compound up to 10 μM, cAMP 1×10^−5M, read-out: PDE4 IC50 range
# IC50 values compiled below
readout: IC50

compound="COc1ccc(-c2cccc3c2COC3=O)c(OCC2(CO)COC2)c1OC [Compound 119]" readout=IC50 result="100 to 500 nM"
compound="COc1ccc(-c2ccc3c(c2)CNC3=O)c(OCc2ccc(C(=O)N(C)C)cc2)c1OC [Compound 156]" readout=IC50 result="< 100 nM"
compound="CCNC(=O)OCC1(COc2c(-c3ccc4c(c3)COC4=O)ccc(OC)c2OC)COC1 [Compound 213]" readout=IC50 result="< 100 nM"
compound="COc1ccc(-c2cccc3c2CCC3=O)c(OCc2ccc(C(N)=O)cc2)c1OC [Compound 106]" readout=IC50 result="< 100 nM"
